B1: Azoarcus group I ribozyme (parent)
chain: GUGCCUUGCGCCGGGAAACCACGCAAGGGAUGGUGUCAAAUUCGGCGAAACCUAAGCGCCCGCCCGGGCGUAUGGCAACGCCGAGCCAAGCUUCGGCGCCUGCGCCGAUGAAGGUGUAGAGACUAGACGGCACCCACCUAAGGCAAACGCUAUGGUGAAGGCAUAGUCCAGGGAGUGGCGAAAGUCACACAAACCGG

# Variants of: B1
# PROTOCOL: reverse-splicing fitness (ratio to wild type); higher = more active; in vitro selection; Mg2+ level not given
OBSERVATION TYPE: reverse-splicing fitness

In the examples that follow, each entry is paired with its recorded reverse-splicing fitness.
Ask | Which measured reverse-splicing fitness value corresponds to C82U A111U A120G A145C C150A C169G U176A ?
Reply | 0.0242

Ask | Which measured reverse-splicing fitness value corresponds to C82U A111U A145U ?
Reply | 0.329

Ask | Which measured reverse-splicing fitness value corresponds to C82G A111G A120C A145C C169A U176A ?
Reply | 0.0154

Ask | Which measured reverse-splicing fitness value corresponds to A120U C150G C169U U176C ?
Reply | 0.0154

Ask | Which measured reverse-splicing fitness value corresponds to C82U A111G A120U A145U C169G U176A ?
Reply | 0.00205

Ask | Which measured reverse-splicing fitness value corresponds to C82U A111C A120U A145U C150A C169G U176C ?
Reply | 0.003

API: the following record is the query input.
Ask | Which measured reverse-splicing fitness value corresponds to C82A A120C A145C C150A C169U ?
Reply | 0.00877
